Test system: morningglory
Assay: Test B pre/postemergence morningglory
Type: in vivo, Ipomoea hederacea
Conditions: Postemergence, Rate 250 g/ha; scale 0 to 10, 0 no effect, 10 complete control
Threshold check on Morningglory plant response rating: strictly below 2 is T; on or above 2 is F.

[[record]]
compound_structure_string = "CCN(C(=O)n1oc(=O)n(-c2c(C)cccc2C)c1=O)C1CCCCC1"
class_label = "T"

[[record]]
compound_structure_string = "C=CCn1c(=O)on(C(=O)N(c2ccc(Cl)cc2)C(C)C)c1=O"
class_label = "F"

[[record]]
compound_structure_string = "CC(C)N(C(=O)n1oc(=O)n(C(C)(C)C)c1=O)c1ccc(Cl)cc1"
class_label = "F"

[[record]]
compound_structure_string = "CCn1c(=O)on(C(=O)N(c2ccccc2)C(C)C)c1=O"
class_label = "F"

[[record]]
compound_structure_string = "CC(C)N(C(=O)n1oc(=O)n(C(C)C)c1=O)c1ccc(Cl)cc1"
class_label = "F"

[[record]]
compound_structure_string = "Cc1nn(C)c(Cl)c1-n1c(=O)on(C(=O)N(c2ccc(F)cc2F)C(C)C)c1=O"
class_label = "T"


Query string: Field: below-cutoff. Rule: recorded Morningglory plant response rating strictly less than 2. Subject: "CCc1cccc(C)c1-n1c(=O)on(C(=O)N(c2ccc(F)cc2)C(C)C)c1=O"
Result string: T

* * *

Tested on: giant foxtail
Test: Test B pre/postemergence giant foxtail
Format: in vivo, Setaria faberii
Settings: Postemergence, Rate 62 g/ha; scale 0 to 10, 0 is no effect, 10 is complete control
MEASUREMENT NAME: Plant response rating, Giant foxtail

[[record]]
compound = "CC(C)N(C(=O)n1oc(=O)n(CSC#N)c1=O)c1ccc(F)cc1"
measurement_name = "Plant response rating, Giant foxtail"
result = 0

[[record]]
compound = "CCC(C)n1c(=O)on(C(=O)N(c2ccccc2)C(C)C)c1=O (stereo not drawn) [Compound 611]"
measurement_name = "Plant response rating, Giant foxtail"
result = 8

[[record]]
compound = "Cc1nc(C(C)n2c(=O)on(C(=O)N(c3ccc(F)cc3)C(C)C)c2=O)sc1C (stereo not drawn)"
measurement_name = "Plant response rating, Giant foxtail"
result = 2

[[record]]
compound = "CC(C)N(C(=O)n1oc(=O)n(CC(F)F)c1=O)c1ccc(F)cc1"
measurement_name = "Plant response rating, Giant foxtail"
result = 8


Let me check: CCC(C)n1c(=O)on(C(=O)N(c2ccccc2)C(C)C)c1=O (stereo not drawn) [Compound 610] , system giant foxtail, measured Plant response rating, Giant foxtail is 8

Let me check: C#CC(C)n1c(=O)on(C(=O)N(c2ccc(F)cc2F)C(C)C)c1=O (racemic) , system giant foxtail, measured Plant response rating, Giant foxtail is 5

* * *

Test system: pigweed
Test: Test B pre/postemergence pigweed
Format: in vivo, Amaranthus retroflexus
Conditions: Preemergence, Rate 250 g/ha; scale 0 to 10, 0 is no effect, 10 is complete control
Measured Redroot pigweed plant response rating of individual entries
Answer with a number only.

# annotated cases, reported Redroot pigweed plant response rating shown
[[record]]
molecule = "Cc1nc(C)c(C(C)n2c(=O)on(C(=O)N(c3ccccc3)C(C)C)c2=O)s1 (stereo not shown)"
tested_on = "pigweed"
measurement_name = "Redroot pigweed plant response rating"
numeric_readout = 0

[[record]]
molecule = "CC(C)N(C(=O)n1oc(=O)n(CCCl)c1=O)c1ccccc1"
tested_on = "pigweed"
measurement_name = "Redroot pigweed plant response rating"
numeric_readout = 10

[[record]]
molecule = "Cc1ccccc1-n1c(=O)on(C(=O)N(c2ccc(Cl)cc2Cl)C(C)C)c1=O"
tested_on = "pigweed"
measurement_name = "Redroot pigweed plant response rating"
numeric_readout = 0


// next entry
GET /value?item= "Cc1nc(C)c(Cn2c(=O)on(C(=O)N(c3ccc(F)cc3)C(C)C)c2=O)s1" &field=Redroot pigweed plant response rating returns 5
